biological target: T1, Human CD137 ECD (human); assay: Biacore SPR, vs parent H183/L072
T1 construct: entry includes C-terminal His-tag and biotin acceptor peptide; also called human CD137 extracellular domain; 4-1BB
T1 sequence (chain, as listed by the source limits assumed): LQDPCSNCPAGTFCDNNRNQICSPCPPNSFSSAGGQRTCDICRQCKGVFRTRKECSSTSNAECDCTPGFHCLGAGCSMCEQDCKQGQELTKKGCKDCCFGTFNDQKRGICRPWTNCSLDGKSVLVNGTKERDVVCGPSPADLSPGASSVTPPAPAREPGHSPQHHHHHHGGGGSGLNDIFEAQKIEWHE
endpoint: fold change of affinity (fold)
# output: bare number, implied unit fold

Query block: Dear colleague, I am looking for the recorded fold change of affinity of the following binder: H183/L072 VL Q90K (antibody, name in Kabat numbering, V domains shown, Dual-Ig) VH: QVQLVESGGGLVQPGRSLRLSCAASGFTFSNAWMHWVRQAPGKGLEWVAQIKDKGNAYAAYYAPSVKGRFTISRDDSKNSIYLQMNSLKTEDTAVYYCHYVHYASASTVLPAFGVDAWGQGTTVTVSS VL: DIVMTQSPLSLPVTPGEPASISCQASQELVHMNRNTYLHWYQQKPGQAPRLLIYKVSNRFPGVPDRFSGSGSGTDFTLKISRVEAEDVGVYYCAKGTSVPFTFGQGTKLEIK
Result block: 0

Query block: Please give the measured fold change of affinity for this binder: H183/L072 VL K50G (antibody, name in Kabat numbering, V domains shown, Dual-Ig) VH: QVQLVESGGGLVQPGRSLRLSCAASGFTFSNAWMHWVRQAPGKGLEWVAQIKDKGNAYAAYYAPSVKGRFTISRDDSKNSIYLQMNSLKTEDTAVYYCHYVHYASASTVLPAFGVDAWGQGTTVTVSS VL: DIVMTQSPLSLPVTPGEPASISCQASQELVHMNRNTYLHWYQQKPGQAPRLLIYGVSNRFPGVPDRFSGSGSGTDFTLKISRVEAEDVGVYYCAQGTSVPFTFGQGTKLEIK
Result block: 0

Query block: Form field: reported fold change of affinity of H183/L072 VL S52G (antibody, name in Kabat numbering, V domains shown, Dual-Ig) VH: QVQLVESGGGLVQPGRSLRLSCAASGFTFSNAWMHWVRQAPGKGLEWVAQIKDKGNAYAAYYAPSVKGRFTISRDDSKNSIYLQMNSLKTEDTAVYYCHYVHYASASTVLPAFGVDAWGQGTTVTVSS VL: DIVMTQSPLSLPVTPGEPASISCQASQELVHMNRNTYLHWYQQKPGQAPRLLIYKVGNRFPGVPDRFSGSGSGTDFTLKISRVEAEDVGVYYCAQGTSVPFTFGQGTKLEIK
Result block: 0.8

The reported numbers originate from patent US20210388087A1.
